These data points were gathered from paper PMC7205207.

Target Or System: T1, human PDGF-BB (platelet derived growth factor B homodimer) (human, UniProt P01127)
T1 construct: Platelet derived growth factor B, human, homodimer, bought from PeproTech; the printed catalogue number may stand for 100-14B; source: bought: PeproTech, Catalog 100-148
T1 sequence (P01127 82-190): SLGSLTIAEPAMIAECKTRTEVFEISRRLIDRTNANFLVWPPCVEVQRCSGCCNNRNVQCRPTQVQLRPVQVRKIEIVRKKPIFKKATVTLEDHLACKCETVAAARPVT
Test Protocol: SPR; Biacore T200, off-rate screen; antibody captured (~70 to 100 RU) by anti-human IgG amine-coupled to a CM5 chip; human PDGF-BB injected at a single 2.5 nM for 170 s, dissociation 300 s; HBS-EP+ N (10 mM HEPES, 500 mM NaCl, 3 mM EDTA, 0.05% Tween20, pH 7.4); 25 C
Study Conditions: both partners purified
Can you tell me koff for the items I'm about to list?
Value and unit, in that order.

Prompt: So what's the measured koff for this one? R1-010 (antibody, V domains shown, VH of AB-001 (AB-001_HC); only the variable regions are written; source: HEK293, transient, purified from conditioned medium (protein A, TMAE, HIC)) VH: EVQLLESGGGLVQPGGSLRLSCAASGFTFSSYAMSWVRQAPGKGLEWVSYISDDGSLKYYADSVKGRFTISRDNSKNTLYLQMNSLRAEDTAVYYCAKHPYWYGGQLDLWGQGTLVTVSS VL: SYELTQPPSVSVSPGQTASITCSGDSLGSYFVHWYQQKPGQSPVLVIYDDSKRPSGIPERFSGSNSGNTATLTISGTQAMDEADYYCSAFTHNSDVFGGGTKLTVL
Response: 0.000372 s⁻¹

Prompt: # lookup: koff of R1-007 (antibody, V domains shown, VL of AB-001 (AB-001_LC); only the variable regions are written; source: HEK293, transient, purified from conditioned medium (protein A, TMAE, HIC)) VH: EVQLLQSGGGLVKPGGSLRLSCAASGFTFSSYAMSWVRQAPGKGLEWVSYISDDGSLKYYADSVKGRFTISRDNSKNTLYLQMNSLRAEDTAVYYCARHPYWYGGQLDLWGQGTLVTVSS VL: SYELTQPPSVSVSPGQTASITCSGDSLGSYFVHWYQQKPGQSPVLVIYDDSNRPSGIPERFSGSNSGNTATLTISGTQAMDEADYYCSAFTHNSDVFGGGTKLTVL
Response: 0.000282 s⁻¹

Prompt: What value of koff has been reported for the following binder? R1-018 (antibody, V domains shown, only the variable regions are written; source: HEK293, transient, purified from conditioned medium (protein A, TMAE, HIC)) VH: EVQLLESGGGLVQPGGSLRLSCAASGFTFSSYAMSWVRQAPGKGLEWVSYISDDGSLKYYADSVKGRFTISRDNSKNTLYLQMNSLRAEDTAVYYCARHPYWYGGRLDLWGQGTLVTVSS VL: SYELTQPPSVSVSPGQRASITCSGDSLGSYFVHWYQQKPGQSPVLVIYDDSNRPSGIPERFSGSNSGNTATLTISGTQAMDEADYYCSAFTHNSDVFGGGTKLTVL
Response: 0.000419 s⁻¹
